molecular target: KPC-2 (Klebsiella pneumoniae); construct: made in house; conditions: KPC-2 20 mol%; warhead 3 + alkyne cluster; 37 °C, 24 h
Sequence (Q9F663 25-293, looked up, species assumed): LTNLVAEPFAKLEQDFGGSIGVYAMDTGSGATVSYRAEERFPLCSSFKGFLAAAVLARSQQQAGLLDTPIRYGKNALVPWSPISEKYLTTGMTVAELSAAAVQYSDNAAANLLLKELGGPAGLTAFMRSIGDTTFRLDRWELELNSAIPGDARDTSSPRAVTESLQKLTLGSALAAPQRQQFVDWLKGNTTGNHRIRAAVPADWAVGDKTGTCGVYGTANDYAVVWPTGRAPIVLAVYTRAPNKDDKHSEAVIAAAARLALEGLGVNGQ
measurement type: AC (amplification coefficient)

Past entries and their recorded results:
- C#CCS(=O)(=O)c1ccccc1: exceeding three
- NC(=O)c1cccc(OCc2cn(Cc3cccc(B(O)O)c3)nn2)c1: 3-4
- C#CCNS(=O)(=O)Cc1cccc(C(=O)OC)c1: exceeding three
- C#CCOc1cccc(C(N)=O)c1: exceeding three

Q: Please report the measured AC (amplification coefficient) for `O=S(=O)(Cc1cn(Cc2cccc(B(O)O)c2)nn1)c1ccccc1`
A: 3-4

Q: Given `COC(=O)c1cccc(CS(=O)(=O)NCc2cn(Cc3cccc(B(O)O)c3)nn2)c1` , respond with its AC (amplification coefficient).
A: 5-6
